# System: IRAK4
# run-conditions: concentration: 1 μM,replicates: in singlicate; n = 1;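 further: KINOMEscan kinase panel screen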
Quick rule for you: %Inh under 2% gets fulfilled, anything else gets not fulfilled.

Solved cases below.
FC(F)(F)c1cc(Br)cc(Nc2nccc(-c3cnn4ncccc34)n2)c1 [GW810578]
fulfilled
O=C1NCCc2[nH]c(-c3ccncc3)cc21
fulfilled
CN(c1ccccc1CNc1nc(Nc2ccc3c(c2)CC(=O)N3)ncc1C(F)(F)F)S(C)(=O)=O
not fulfilled
Cl.Cl.NC[C@H](CC1CCCCC1)NC(=O)c1ccc(-c2ccnc3[nH]ccc23)s1 [GSK1581428]
not fulfilled
CCNCC(Cc1ccccc1)NC(=O)c1cc(Br)c(-c2ccnc3[nH]ccc23)s1.Cl.Cl (stereo not drawn) [GSK1383280]
not fulfilled
CS(=O)(=O)c1cccc(CNc2nc(Nc3ccc4c(c3)[C@@H]3C[C@@H]4CNC3=O)ncc2C(F)(F)F)c1
fulfilled
Cc1ccc(C(=O)Nc2ccc(Oc3ccc4nc(NC(=O)C5CC5)cn4c3)c(F)c2)c(=O)n1-c1ccccc1
fulfilled
COc1cc2ncn(-c3cc(OCC4CCCCC4)c(C(N)=O)s3)c2cc1OC [GSK204559]
not fulfilled

Report whether reported %Inh is lower than 2% (strictly) for Cc1cccc(-c2nc(Nc3ccncc3)c3sccc3n2)n1 [GW869641]
fulfilled

Do the same for CC(=O)Nc1ccc(-c2cc3ncnc(SCC(=O)O)c3s2)cc1 please
fulfilled

---

# System: MYLK
# run-conditions: concentration: 1 μM,replicates: in singlicate; n = 1
experimental-endpoint: %Inh (%)
Dear colleague, please return just the value in %, with no unit written.

Test system MYLK; read-out %Inh; what value for O=C(Nc1cccc(C(F)(F)F)c1)c1cccc(Oc2ccc3nccn3n2)c1 ?
6

Do the same for C[C@@H]1CCN(C(=O)N2CCCC2)C[C@@H]1N(C)c1ncnc2[nH]ccc12 please
2

Do the same for COc1cc2nccc(Nc3ccc(Oc4ccccc4)cc3)c2cc1OC.Cl please
7

---

// reported %Inh for each item listed
# System: LOK
# Construct: gene STK10
# run-conditions: concentration: 1 μM,replicates: in singlicate; n = 1

Below, 10 compounds whose answers are already recorded.
C[C@@H]1CCN(C(=O)N2CCCC2)C[C@@H]1N(C)c1ncnc2[nH]ccc12
0%
Cc1ccc2c(-c3ccnc(Nc4ccc(C(F)(F)F)cc4)n3)cnn2n1 [GW819776]
16%
CCn1c(-c2nonc2N)nc2cncc(Br)c21 [SB-738004]
9%
COC(=O)c1cccc(NC(=O)NC2CCN(c3ccnc(Nc4cc(OC)c(OC)c(OC)c4)n3)C2)c1 (stereo not drawn) [GSK1379767]
45%
Nc1nccc(-c2ccc3c(N)n[nH]c3c2)n1 [GSK1034945]
0%
CCCC(=O)Nc1n[nH]c2ncccc12 [SB-601436]
3%
CCOC(=O)N1CCC(n2cnc(-c3ccc(F)cc3)c2-c2ccnc(N)n2)CC1 [SB-219952]
100%
CCN1CCN(CCCC(=O)Nc2n[nH]c3nc(-c4ccc(O)cc4)c(Br)cc23)CC1 [SB-731579]
13%
Cn1ccc2ncnc(Oc3ccc(NC(=O)Nc4ccnc(C(F)(F)F)c4)c(Cl)c3)c21
94%
CN1CCN(CCNc2nc3cc(Oc4ccc(NC(=O)Nc5cc(C(F)(F)F)ccc5F)cc4)ccc3[nH]2)CC1.Cl.Cl [GW768504]
95.2%

Let us move to another entry and its %Inh.
What measured %Inh goes with Cl.Cl.NC[C@H](CC1CCCCC1)NC(=O)c1ccc(-c2ccnc3[nH]ccc23)s1 [GSK1581428] ?
31%

---

# System: TIE2
# Construct: gene TEK
# run-conditions: concentration: 1 μM,replicates: in singlicate; n = 1
experimental-endpoint: %Inh (%)
Dear colleague, please return just the value in %, with no unit written.

OCCn1cc(-c2cnc3nnn(Cc4ccc5ncccc5c4)c3n2)cn1
0
NC(=O)c1ccc(-c2cc3ncnc(SCC(=O)O)c3s2)cc1
13
CCNCC(Cc1ccccc1)NC(=O)c1cc(Br)c(-c2ccnc3[nH]ccc23)s1.Cl.Cl (stereo not drawn)
0
CCCC(=O)Nc1n[nH]c2ncccc12
0

What measured %Inh goes with O=c1[nH]cc(-c2ccc(O)cc2)c2sc(-c3ccncc3)cc12 ?
89

Do the same for CS(=O)(=O)Nc1ccc(-c2ccnc3[nH]ccc23)cc1 please
3

---

# System: ULK2
# run-conditions: concentration: 1 μM,replicates: in singlicate; n = 1
experimental-endpoint: %Inh

CC(C)c1nc(-c2cccc(NS(=O)(=O)c3ccccc3)c2)c(-c2ccnc(Nc3ccc4c(c3)CN(C)CC4)n2)s1
67%

Test system ULK2; read-out %Inh; what value for CC(=O)Nc1ccc(-c2cc3ncnc(SCC(=O)O)c3s2)cc1 ?
13%

Do the same for O=C1NCCc2[nH]c(-c3ccncc3)cc21 please
32%

Do the same for O=C(Nc1cccc(Oc2ccc3nccn3n2)c1)Nc1cccc(C(F)(F)F)c1 please
0%

Do the same for COc1cccc(CNC(=O)NC2CCN(c3ccnc(Nc4cc(OC)c(OC)c(OC)c4)n3)C2)c1 (centres unmarked) please
0%

---

# Test system: SNARK
# Construct: gene NUAK2
# run-conditions: concentration: 1 μM,replicates: in singlicate; n = 1
// reported %Inh for each item listed
Dear colleague, please return just the value in %, with no unit written.

Below, 5 compounds whose answers are already recorded.
CSc1nccc(-c2c(-c3ccc(F)cc3)ncn2CCCN2CCOCC2)n1.Cl
0
CC(=O)Nc1ccc(-c2cc3ncnc(SCC(=O)O)c3s2)cc1
15
CCn1c(-c2nonc2N)nc2cncc(CNC3CCNCC3)c21.Cl
13
O=C(NOCC1CC1)c1cc(Br)c(F)c(F)c1Nc1ccc(I)cc1Cl
0
OCCn1cc(-c2cnc3nnn(Cc4ccc5ncccc5c4)c3n2)cn1
0

What measured %Inh goes with CCOC(=O)N1CCC(n2cnc(-c3ccc(F)cc3)c2-c2ccnc(N)n2)CC1 ?
0

---

# Tested on: PLK1
# run-conditions: concentration: 1 μM,replicates: in singlicate; n = 1
// reported %Inh for each item listed

Cc1cccc(-c2nc(Nc3ccncc3)c3sccc3n2)n1
33%
FC(F)(F)c1cc(Br)cc(Nc2nccc(-c3cnn4ncccc34)n2)c1
9%
O=C(NCC1CC1)c1ccc(-c2cc(C(=O)NC3CC3)ccc2F)cc1
6%
COC(=O)Nc1nc2cc(Oc3ccc(NC(=O)Nc4cc(C(F)(F)F)ccc4Cl)cc3)ccc2[nH]1.Cl
0%
CN(c1cccc(CNc2nc(Nc3ccc4c(c3)CC(=O)N4)ncc2C(F)(F)F)c1)S(C)(=O)=O
0%

What measured %Inh goes with O=C(NOCC1CC1)c1cc(Br)c(F)c(F)c1Nc1ccc(I)cc1Cl ?
0%

Do the same for CN(c1ccc2c(c1)nc(NCc1ccc(F)cc1)n2C)c1ccnc(Nc2ccc(CS(C)(=O)=O)cc2)n1.Cl please
0%

Do the same for Cc1ccn2nc(-c3ccc(F)cc3)c(-c3ccncc3)c2c1.Cl please
0%

Do the same for O=C(Nc1n[nH]c2cc(-c3ccco3)ccc12)C1CC1 please
0%

---

# System: TYK2(JH1domain-catalytic)
# run-conditions: concentration: 1 μM,replicates: in singlicate; n = 1
experimental-endpoint: %Inh (%)
Dear colleague, please return just the value in %, with no unit written.

Below, 3 compounds whose answers are already recorded.
CC(C)c1nc(-c2cccc(NS(=O)(=O)c3ccccc3)c2)c(-c2ccnc(Nc3ccc4c(c3)CN(C)CC4)n2)s1 [GSK1649598]
55
COC(=O)c1cccc(NC(=O)NC2CCN(c3ccnc(Nc4cc(OC)c(OC)c(OC)c4)n3)C2)c1 (stereo not shown) [GSK1379767]
40
Nc1nccc(-c2ccc3c(N)n[nH]c3c2)n1 [GSK1034945]
34

What measured %Inh goes with CC(C(=O)NC1CCN(c2ccnc(Nc3ccc(F)cc3)n2)C1)c1ccc(Cl)cc1 (stereo not shown) [GSK1379713] ?
9

---

// reported %Inh for each item listed
# System: CAMK4
# run-conditions: concentration: 1 μM,replicates: in singlicate; n = 1
Dear colleague, please return just the value in %, with no unit written.

COc1ccc(Nc2nccc(N3CCC(NC(=O)c4cccc(C#N)c4)C3)n2)cc1 (centres unmarked)
0
c1ccc(Oc2ccc(Nc3ccnc4ccc(-c5ccccn5)cc34)cc2)cc1
0
C[C@@H](Oc1cc(-n2cnc3ccc(-c4ccncc4)cc32)sc1C(N)=O)c1ccccc1Cl
0
CS(=O)(=O)c1cccc(CNc2nc(Nc3ccc4c(c3)[C@@H]3C[C@@H]4CNC3=O)ncc2C(F)(F)F)c1
0

What measured %Inh goes with COc1cccc(C2=C(Nc3cccc(Cl)c3)C(=O)NC2=O)c1 ?
0

Do the same for Cl.Cl.NC[C@H](CC1CCCCC1)NC(=O)c1ccc(-c2ccnc3[nH]ccc23)s1 please
0

Do the same for Cc1ccc2c(-c3ccnc(Nc4ccc(C(F)(F)F)cc4)n3)cnn2n1 please
0

Do the same for Cn1ccc2ncnc(Oc3ccc(NC(=O)Nc4cccc(C(F)(F)F)c4)c(Cl)c3)c21 please
6

Do the same for Cn1ccc2ncnc(Oc3ccc(NC(=O)Nc4cc(C(C)(C)C)on4)c(Cl)c3)c21 please
0

Do the same for Cc1ccc(Nc2ccnc(Nc3ccc4c(c3)CS(=O)(=O)C4)n2)cc1O.Cl please
0

Do the same for Cn1ccc2ncnc(Oc3ccc(NC(=O)Nc4cnn(C(C)(C)C)c4)c(Cl)c3)c21 please
7

Do the same for Cn1ccc2ncnc(Oc3ccc(NC(=O)Nc4ccnc(C(F)(F)F)c4)c(Cl)c3)c21 please
0

Every entry's value here was drawn from paper PMC5540273.
